The reported numbers originate from ChEMBL document CHEMBL1135677.

target.of.assay: Albumin (Homo sapiens, UniProt P02768)
Sequence (P02768 whole entry): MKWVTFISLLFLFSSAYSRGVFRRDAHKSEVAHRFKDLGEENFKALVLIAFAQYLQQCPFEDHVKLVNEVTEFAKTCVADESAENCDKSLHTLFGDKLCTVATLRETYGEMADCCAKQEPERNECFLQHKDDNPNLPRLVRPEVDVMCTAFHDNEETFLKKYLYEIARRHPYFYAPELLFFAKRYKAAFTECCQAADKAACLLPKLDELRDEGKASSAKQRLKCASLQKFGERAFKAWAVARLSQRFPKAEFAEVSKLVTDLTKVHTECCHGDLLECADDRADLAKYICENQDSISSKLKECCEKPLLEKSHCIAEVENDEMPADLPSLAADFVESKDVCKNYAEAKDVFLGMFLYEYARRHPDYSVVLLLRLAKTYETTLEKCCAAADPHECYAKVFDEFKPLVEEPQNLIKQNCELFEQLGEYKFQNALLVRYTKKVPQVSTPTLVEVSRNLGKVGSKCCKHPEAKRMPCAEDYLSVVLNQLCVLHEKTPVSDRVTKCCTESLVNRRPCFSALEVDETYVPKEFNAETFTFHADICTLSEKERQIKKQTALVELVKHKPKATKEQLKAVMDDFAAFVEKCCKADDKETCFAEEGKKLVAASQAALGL
method.notes: Second order rate constant after incubation with human serum albumin (HSA) at pH 7.4 in the presence of 5 equiv of myristic acid
value.kind: k2 (M⁻¹ s⁻¹)
Number only, in M⁻¹ s⁻¹; omit the unit.

| compound | target.of.assay | k2 (M⁻¹ s⁻¹) |
| --- | --- | --- |
| COc1cccc2c1C(=O)c1c(O)c3c(c(O)c1C2=O)C[C@@](O)(/C(CO)=N/NC(=O)CCCCCN1C(=O)C=CC1=O)C[C@]3(C)COC1C[C@H](N)[C@](C)(O)[C@H](C)O1.Cl (stereo in doubt; 3) | Albumin (Homo sapiens, UniProt P02768) | 37.5 |

Q: Lab request: please report k2 under test system Albumin (Homo sapiens, UniProt P02768) for COc1cccc2c1C(=O)c1c(O)c3c(c(O)c1C2=O)C[C@@](O)(/C(CO)=N/NC(=O)CCCCCCCN1C(=O)C=CC1=O)C[C@]3(C)COC1C[C@H](N)[C@](C)(O)[C@H](C)O1.Cl (some centres undefined)
Ans: 16

Q: Lab request: please report k2 under test system Albumin (Homo sapiens, UniProt P02768) for COc1cccc2c1C(=O)c1c(O)c3c(c(O)c1C2=O)C[C@@](O)(/C(CO)=N/NC(=O)CCN1C(=O)C=CC1=O)C[C@]3(C)COC1C[C@H](N)[C@](C)(O)[C@H](C)O1.Cl (some centres undefined)
Ans: 17.83

Q: Lab request: please report k2 under test system Albumin (Homo sapiens, UniProt P02768) for COc1cccc2c1C(=O)c1c(O)c3c(c(O)c1C2=O)C[C@@](O)(/C(CO)=N/NC(=O)CCCN1C(=O)C=CC1=O)C[C@]3(C)COC1C[C@H](N)[C@](C)(O)[C@H](C)O1.Cl (some centres undefined)
Ans: 19
